# activity, negative = cell killing per record follows
Experiment: Drug repurposing screens with cells derived from glioblastoma tumor samples (AID 1345199); also: % is scaled to controls: 0 for no effect and ±100 for the full control effect; nearly all actives have a fitted effect of over 40% in size
Conditions: GBM patient neurospheres viability, ATP luminescence, 48 h; at 45.9 µM (top of the series); tumour line B
Inconclusive results are not listed.
Write down the numeric answer in % and omit the unit.

These solved cases illustrate the format of a correct answer.
[
  {
    "compound": "NC(CSCC(=O)O)C(=O)O (stereo unspecified)",
    "value": -1.36
  },
  {
    "compound": "COc1cc(C)c(Cc2cnc(N)nc2N)cc1OC",
    "value": -4.72
  },
  {
    "compound": "NCCNCCNCCNCCN",
    "value": -23.1
  },
  {
    "compound": "Cc1cccc(Nc2cc(Cl)nc(SCC(=O)O)n2)c1C",
    "value": -5.07
  },
  {
    "compound": "Cc1ccc(C(C)C)cc2c(C)ccc1-2",
    "value": -9
  },
  {
    "compound": "CCN(CC)C(=O)Nc1ccc(OCC(O)CNC(C)(C)C)c(C(C)=O)c1 (stereo unspecified)",
    "value": -20.9
  },
  {
    "compound": "CCN(CC)CCNC(=O)c1cc(Cl)c(N)cc1OC",
    "value": -15.5
  },
  {
    "compound": "CC1=C(/C=C/C(C)=C/C=C/C(C)=C/C(=O)O)C(C)(C)CCC1",
    "value": -21.7
  },
  {
    "compound": "CC(C)(O)c1ccccc1CC[C@@H](SCC1(CC(=O)O)CC1)c1cccc(/C=C/c2ccc3ccc(Cl)cc3n2)c1",
    "value": -2.34
  },
  {
    "compound": "C=Cc1c(C)c2cc3[nH]c(cc4nc(cc5nc(cc1[nH]2)C(C)=C5CCC(=O)O)C(CCC(=O)O)=C4C)c(C)c3C=C",
    "value": -11.3
  }
]

Read the next record carefully.
Noted for `Cc1cccc(C)c1NC(=O)CN(CC(=O)O)CC(=O)O` : its activity, negative = cell killing reads 1.75

* * *

Test system: AA1029
Assay: qHTS profiling for inhibitors of Plasmodium falciparum proliferation (AID 504749);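 also: 0% = DMSO vehicle and full inhibition = artemisinin control; nearly all actives have a fitted effect of over 60% in size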
Settings: P. falciparum in erythrocytes, SYBR Green DNA, 72 h; series mostly up to 28.7 µM
Records with an inconclusive call do not appear. Activity calls are given as the source filed them. The call rests on the fitted dose curve; in most records, active means well fitted inhibition curve with a large enough effect; inconclusive means small, poorly fitted or top-dose-only effect; inactive means flat fitted curve, though single readings scatter.
Lab note: assign the record to one of active, inactive

Req: What call does the record list for `Oc1cn2c(n1)Nc1ccc(Cl)c(Cl)c1C2` ?
Resp: inactive

Req: What call does the record list for `CCCCN(CCCC)CCCOC(=O)c1ccc(N)cc1` ?
Resp: inactive

Req: What call does the record list for OCC(O)CN1CCN(c2ccccc2)CC1 (stereo not drawn) ?
Resp: inactive

Req: What call does the record list for `COc1ccc(Cl)cc1C(=O)NCCc1ccc(S(=O)(=O)NC(=O)NC2CCCCC2)cc1` ?
Resp: inactive

* * *

Test system: HACAT
Assay: qHTS assay to identify novel small-molecules to repurpose for Merkel cell carcinoma treatment (AID 1296009); also: nearly all actives have a fitted effect of over 60% in size
Conditions: MCC and control cell lines, CellTiter-Glo viability, 72 h; at 44.8 µM (top of the series) unless noted
Inconclusive results are not listed. Calls of active or inactive are those of the source. Calls follow the shape of the dose curve; as a rule, active = well fitted inhibition curve with a large enough effect; inconclusive = small, poorly fitted or top-dose-only effect; inactive = flat fitted curve, though single readings scatter.
assay readout: outcome

[
  {
    "molecule": "COc1cc(C(=O)N2CCOCC2)cc(OC)c1OC",
    "assay readout": "outcome",
    "value": "inactive"
  },
  {
    "molecule": "Oc1cn2c(n1)Nc1ccc(Cl)c(Cl)c1C2",
    "assay readout": "outcome",
    "value": "inactive [at 17.4 µM]"
  },
  {
    "molecule": "Cc1c(Cl)cccc1Nc1ccccc1C(=O)O",
    "assay readout": "outcome",
    "value": "inactive"
  },
  {
    "molecule": "CC[C@@]1(c2ccccc2)NC(=O)N(C)C1=O",
    "assay readout": "outcome",
    "value": "inactive"
  },
  {
    "molecule": "COc1ccc2cc1Oc1ccc(cc1)C[C@H]1c3c(cc4c(c3Oc3cc5c(cc3OC)CCN(C)[C@@H]5C2)OCO4)CCN1C",
    "assay readout": "outcome",
    "value": "inactive"
  }
]

Noted for CN1CCCCC1CCN1c2ccccc2Sc2ccc(S(C)=O)cc21 (centres undefined) : its outcome reads inactive

Noted for Oc1ccc(C(O)CNCCCCCCNCC(O)c2ccc(O)c(O)c2)cc1O (centres undefined) : its outcome reads inactive

Noted for `C[C@H]1O[C@H](O[C@H]2[C@H](O)[C@@H](O)[C@@H](O[C@H]3[C@H](O)[C@@H](O)[C@H](O)O[C@@H]3CO)O[C@@H]2CO)[C@H](O)[C@@H](O)[C@@H]1N[C@H]1C=C(CO)[C@@H](O)[C@H](O)[C@H]1O` : its outcome reads inactive

Noted for `C[C@@H](O)[C@H](N)C(=O)O` : its outcome reads inactive [at 17.4 µM]

Noted for `O=C(O)c1ccccc1-c1ccc(C(F)(F)F)cc1` : its outcome reads inactive

Noted for `O=S(=O)(O)NC1CCCCC1` : its outcome reads inactive

Noted for `CCCc1c(OCCCCc2nn[nH]n2)ccc(C(C)=O)c1O` : its outcome reads inactive

Noted for `CCC(=O)Nc1ccc(O)cc1` : its outcome reads inactive

Noted for CC(C)(C(=O)O)c1ccc(C(O)CCCN2CCC(C(O)(c3ccccc3)c3ccccc3)CC2)cc1 (centres undefined) : its outcome reads inactive
